Format: physicochemical
Settings: Tris-hydrochloric acid buffer (pH 7.5) 50 mmol/L, magnesium chloride 5 mmol/L, evaluation compound 1 µmol/L, 37°C, 60 minutes, average of duplicate
measured-parameter: Concentration of evaluation compound decreased (µM)
The reply should be a number in µM, with the unit left off.

| chemical-smiles | value-reported |
| --- | --- |
| O=C(OCOP(=O)([O-])OC[N+]1(CCCCOc2ccc3ccc(=O)[nH]c3c2)CCN(c2cccc3sccc23)CC1)OC1CCOCC1 | 0.02 |
| CCCCCCCC(=O)OCOP(=O)([O-])OC[N+]1(CCCCOc2ccc3ccc(=O)[nH]c3c2)CCN(c2cccc3sccc23)CC1 | 0.00 |
| O=c1ccc2ccc(OCCCC[N+]3(COP(=O)([O-])OC/C=C\CO)CCN(c4cccc5sccc45)CC3)cc2[nH]1 | 0.12 |

Challenge: Fill blank: measured Concentration of evaluation compound decreased of the compound "CC(C)OC(=O)OCOP(=O)([O-])OC[N+]1(CCCCOc2ccc3ccc(=O)[nH]c3c2)CCN(c2cccc3sccc23)CC1" is ____.
Response given: -0.02

Challenge: What would you report for "O=C(O)CCCC(=O)OCOP(=O)([O-])OC[N+]1(CCCCOc2ccc3ccc(=O)[nH]c3c2)CCN(c2cccc3sccc23)CC1" ?
Response given: 0.00

Challenge: What would you report for "O=C(CCCCCO)OCOP(=O)([O-])OC[N+]1(CCCCOc2ccc3ccc(=O)[nH]c3c2)CCN(c2cccc3sccc23)CC1" ?
Response given: 0.16

Challenge: What would you report for "CC(C)(C)OC(=O)CNP(=O)([O-])OC[N+]1(CCCCOc2ccc3ccc(=O)[nH]c3c2)CCN(c2cccc3sccc23)CC1" ?
Response given: 0.16

Challenge: What would you report for "CC1(C)OCC(COC(=O)CCCCC(=O)OCOP(=O)([O-])OC[N+]2(CCCCOc3ccc4ccc(=O)[nH]c4c3)CCN(c3cccc4sccc34)CC2)CO1" ?
Response given: 0.07

Challenge: What would you report for "C[C@@H]1CN(CCOP(=O)([O-])OC[N+]2(CCCCOc3ccc4ccc(=O)[nH]c4c3)CCN(c3cccc4sccc34)CC2)C[C@H](C)O1" ?
Response given: 0.09

Challenge: What would you report for "CC(C)COCCOP(=O)([O-])OC[N+]1(CCCCOc2ccc3ccc(=O)[nH]c3c2)CCN(c2cccc3sccc23)CC1" ?
Response given: 0.05
